Test: protease stability score; higher = more stable; yeast display proteolysis, trypsin and chymotrypsin;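 further: log10 excess protease needed over predicted unfolded state with 0 meaning unfolded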
quantity_name: protease stability score
Answer as a number with no unit attached.

Some sequences with recorded protease stability score:
DDDKVTKVNELLENIKRGNEDDIRDLMDPNARVRIGDKDFHGREEVSDTWKQIRDTAHLSFTDVKNDDQGDHVYVRARFHQTHNGKPDTSVLHLEVTIRNGKIKEAQFHETP : -0.159
DDHEVAKQNMRDLLTILNTGDPDKAEEMADKDVKIDVGDKRYHGQTKMREWIEELRKRYDHIHADVKSVEVHNGQVRADIEMVFNHNGREETVKVDVKAELDGDKVKIENLVLR : 1.3
EDEMRKLAHKVMTAHQTGDPDRIARLMDPNVQVKVGDKTIHGKHQLKRKLTKDLKEMRVHIKSVKFSVQGDKVEVRANLVSRHNGQPHESTVDVRITARGDKLKHLNNQETQ : -0.263
EEENQQIAEDVVDVLRTGDHEKFMHMADPNVKVVIGDKQYRGREDFSKIVKTWKDQMRLHIQIKDVKVEGDEVHVEADYLMKHNGKPVRDTITLVIRFDNGKIKEVQYEVDEDVLRKLES : 1.14

Could you now look at the following sequence, please?
stdin: Give the measured protease stability score of DEEDLKKVVDQLIKAVVNGDVEKIVKYIDEDVEFKLGDTKYKGKEEAKKVVTKLVQVGAEVHVDHVRVKGDEAEVDTVWHIGNTEAHMTVKYVVRGDKVERVEVRWTEEVKKAIKAG .
stdout: 1.46
